reported endpoint: melting point

Input line: What does the record list as melting point for CC(=O)NC(Cc1c[nH]cn1)C(N)=O (stereo unspecified) ?
Output line: 241 to 243 °C

Input line: Return reported melting point; argument: Cc1nn(C(C)(C)C)c(C)c1N
Output line: 54 to 56 °C

Input line: What measured melting point goes with CC(Oc1ccc(Cl)cc1[N+](=O)[O-])C(=O)O (stereo unspecified) ?
Output line: 119 to 121 °C

Input line: Fill blank: measured melting point of the compound NC1CCN(c2ccc(Cl)cc2)C1=O (stereo unspecified) is ____.
Output line: 80 to 82 °C

Input line: Which melting point is reported for this compound? Cc1cc2ccccc2n1CC(=O)O
Output line: 184 to 186 °C

Input line: Reported melting point, compound CCN(CC)S(=O)(=O)c1ccc(N2CCCCC2)c(N)c1 : ____
Output line: 75 to 77 °C

====

reported endpoint: melting point

Use the examples below as a reference point.
>  <molecule>
NC(=O)Nc1cc(Cl)ccc1C(=O)O

>  <melting point>
185 to 187 °C

$$$$
>  <molecule>
CS(=O)(=O)c1ccc(N)c(N)c1

>  <melting point>
125 to 127 °C

$$$$
>  <molecule>
O=C1c2ccccc2C(=O)N1CCCc1nn[nH]n1

>  <melting point>
79 to 81 °C

$$$$

Input line: Request the reported melting point associated with COc1cc(C=O)ccc1OCc1ccncc1
Output line: 106 to 108 °C

Input line: Would you kindly share the measured melting point for CC(C)C(Br)C(=O)NCc1ccccc1F (stereo not drawn) ?
Output line: 104 to 106 °C

====

Listing of recorded melting point by entry.

Study these solved cases before continuing.
>  <molecule>
COc1ccc(C(=O)C(C)Br)cc1OC (centres undefined)

>  <reported endpoint>
melting point

>  <reading>
83 to 85 °C

$$$$
>  <molecule>
NC(C(=O)O)(c1cccc(Cl)c1)C(F)(F)F (centres undefined)

>  <reported endpoint>
melting point

>  <reading>
109 to 111 °C

$$$$
>  <molecule>
CC(NO)c1ccccc1 (centres undefined)

>  <reported endpoint>
melting point

>  <reading>
73 to 75 °C

$$$$
>  <molecule>
CC(C)(C)OC(=O)NC(C)(C)C(C)(C)C(=O)O

>  <reported endpoint>
melting point

>  <reading>
125 to 127 °C

$$$$
>  <molecule>
O=C(O)Cn1cc2ccccc2n1

>  <reported endpoint>
melting point

>  <reading>
248 to 250 °C

$$$$
>  <molecule>
CC(C)CNS(=O)(=O)c1cc(C(=O)O)c(Cl)cc1Cl

>  <reported endpoint>
melting point

>  <reading>
179 to 181 °C

$$$$

Input line: Recorded melting point of Cc1cc(C)n(-c2ccc(C(N)=NO)cn2)n1 , please.
Output line: 139 to 141 °C

====

Catalogue of compounds with associated melting point

Input line: Fill in: melting point of O=c1[nH]cnc2c1CCNC2 is ___
Output line: 251 to 253 °C

====

Measured melting point, listed per entry.

Field: example entries. Status: answers known.
>  <compound>
Cc1oc(C(=O)O)cc1S(N)(=O)=O

>  <melting point>
225 to 227 °C

$$$$
>  <compound>
CCN(CC)S(=O)(=O)c1ccc2c(c1)CCN2

>  <melting point>
80 to 82 °C

$$$$
>  <compound>
Nc1ccc(CCn2nnc(-c3ccccc3)n2)cc1

>  <melting point>
99 to 101 °C

$$$$
>  <compound>
COC(=O)c1cc(N)cc(F)c1F

>  <melting point>
89 to 91 °C

$$$$

Input line: Could you tell me which melting point is on file for Cc1ncc(Br)n1C ?
Output line: 92 to 94 °C

Input line: Which melting point is listed for O=C(O)C1CC(=O)N(c2cn[nH]c2)C1 (stereo unspecified) ?
Output line: 259 to 261 °C
